- MEASURED_TARGET: Cytochrome P450 2C19 (Homo sapiens) (UniProt P33261)
- Sequence (P33261 whole entry, looked up): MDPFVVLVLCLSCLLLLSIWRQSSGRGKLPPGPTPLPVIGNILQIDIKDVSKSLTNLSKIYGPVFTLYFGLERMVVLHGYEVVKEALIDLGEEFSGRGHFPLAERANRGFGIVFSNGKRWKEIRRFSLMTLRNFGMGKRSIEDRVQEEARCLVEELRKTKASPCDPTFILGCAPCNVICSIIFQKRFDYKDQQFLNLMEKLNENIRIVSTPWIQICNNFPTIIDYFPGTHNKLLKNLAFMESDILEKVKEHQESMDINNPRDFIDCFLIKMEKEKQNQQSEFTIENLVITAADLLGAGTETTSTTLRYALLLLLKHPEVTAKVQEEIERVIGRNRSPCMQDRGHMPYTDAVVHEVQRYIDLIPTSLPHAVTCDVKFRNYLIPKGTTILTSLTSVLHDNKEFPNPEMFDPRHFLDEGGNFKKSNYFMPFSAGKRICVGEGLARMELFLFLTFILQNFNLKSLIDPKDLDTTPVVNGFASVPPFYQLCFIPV
- ASSAY_PROTOCOL: Cytochrome P450 Family 2 Subfamily C Member 19 (CYP2C19) small molecule antagonists: luciferase reporter qHTS assay (AID 1671197); also: nearly all actives have a fitted effect of over 65% in size
- TEST_CONDITIONS: P450-Glo CYP2C19 enzyme, luciferin luminescence, 1 h; series mostly up to 115 µM
Records with an inconclusive call do not appear. Activity calls are given as the source filed them. Calls follow the shape of the dose curve; as a rule, active = well fitted inhibition curve with a large enough effect in the repeat runs; inconclusive = weak or mixed curves; inactive = no such curve, though single readings can be large or run the other way.
Use one of these outcomes when replying: active, inactive

Lookup: Could you check what this test reported for `Cc1nccn1-c1ccc(Sc2cccc(C3(C(N)=O)CCOCC3)c2)cc1` ?
Found: active

Lookup: Could you check what this test reported for CCC(C(=O)OCCOCCN(CC)CC)c1ccccc1 (centres undefined) ?
Found: inactive

Lookup: Could you check what this test reported for `O=C(c1ccc(O)cc1)c1ccc(Cl)cc1` ?
Found: active

Lookup: Could you check what this test reported for CCCC1C(CC)=CC(CC)=CN1c1ccccc1 (centres undefined) ?
Found: active

Lookup: Could you check what this test reported for `COc1cc2ncnc(Nc3ccc(F)c(Cl)c3)c2cc1OCCCN1CCOCC1` ?
Found: active

Lookup: Could you check what this test reported for `Nc1nccs1` ?
Found: inactive

Lookup: Could you check what this test reported for CCCCC(CC)CNCC(CC)CCCC (centres undefined) ?
Found: active

Lookup: Could you check what this test reported for CCCCC(CC)C(=O)OCCOCCOCCOCCOC(=O)C(CC)CCCC (centres undefined) ?
Found: active

Lookup: Could you check what this test reported for `CN(C)C(=O)Nc1ccc(Oc2ccc(Cl)cc2)cc1` ?
Found: active

Lookup: Could you check what this test reported for CC1C2CC(CC2C2CCCC(O)C2)C1(C)C (centres undefined) ?
Found: active

Lookup: Could you check what this test reported for `O=C(O)c1cccnc1C(=O)O` ?
Found: inactive

Lookup: Could you check what this test reported for `COC(=O)CC(=O)C(C)(C)C` ?
Found: inactive

Lookup: Could you check what this test reported for `Cc1cc(OI)c(C(C)C)cc1-c1cc(C(C)C)c(OI)cc1C` ?
Found: active

Lookup: Could you check what this test reported for `Cc1ccc(/C=N/n2c(-c3ccccc3)csc2=S)cc1` ?
Found: active

Lookup: Could you check what this test reported for CCC(Cc1ccccc1)(C(=O)c1ccc(N2CCOCC2)cc1)N(C)C (centres undefined) ?
Found: active

Lookup: Could you check what this test reported for Fc1ccccc1[C@@H](F)COC1CCC(Nc2ncnc3[nH]ncc23)CC1 (some centres undefined) ?
Found: active

Lookup: Could you check what this test reported for `N#C[C@@H]1C[C@@H]2C[C@@H]2N1C(=O)[C@@H](N)C12CC3CC(CC(O)(C3)C1)C2` ?
Found: inactive

Lookup: Could you check what this test reported for `CCOC(=N)CC(=O)OCC` ?
Found: inactive

Lookup: Could you check what this test reported for `CSc1ccc(Oc2ccc(S(N)(=O)=O)cc2CN(C)C)cc1C` ?
Found: active

Lookup: Could you check what this test reported for `Cc1ccc(Nc2nccc(N(C)c3ccc4c(C)n(C)nc4c3)n2)cc1S(N)(=O)=O` ?
Found: inactive

Lookup: Could you check what this test reported for O=C(CCCN1CCN(c2ccc(F)cc2)CC1)NC1c2ccccc2CSc2ccccc21 (centres undefined) ?
Found: active

Lookup: Could you check what this test reported for `Nc1ccc(S(=O)(=O)O)cc1` ?
Found: inactive

Lookup: Could you check what this test reported for `CCCCCCCC/C=C\CCCCCCCC(=O)OC` ?
Found: inactive

Lookup: Could you check what this test reported for CC1CC(O)CC(C)(C)C1 (centres undefined) ?
Found: inactive

Lookup: Could you check what this test reported for `CC(C)C(=O)O` ?
Found: inactive

Lookup: Could you check what this test reported for `CCOC(=O)N1CCC(n2c(=O)[nH]c3cc(Cl)ccc32)CC1` ?
Found: active

Lookup: Could you check what this test reported for `NC(=O)Nc1ccc(Cl)cc1` ?
Found: active

Lookup: Could you check what this test reported for `CCOC(=O)c1ccccc1C` ?
Found: inactive

Lookup: Could you check what this test reported for `O=C(CS)OCCOC(=O)CS` ?
Found: inactive

Lookup: Could you check what this test reported for `Brc1cc(-c2ccc(Br)c(Br)c2Br)cc(Br)c1Br` ?
Found: active

Lookup: Could you check what this test reported for `NC(=O)N(O)[C@@H]1C=C[C@H](Oc2cccc(Oc3ccc(F)cc3)c2)C1` ?
Found: active

Lookup: Could you check what this test reported for `CCCCC(=O)O[C@]1(C(=O)CO)CC[C@H]2[C@@H]3CCC4=CC(=O)CC[C@]4(C)[C@H]3[C@@H](O)C[C@@]21C` ?
Found: inactive

Lookup: Could you check what this test reported for O=C(O)C(Cc1cc(I)c(O)c(I)c1)c1ccccc1 (centres undefined) ?
Found: inactive

Lookup: Could you check what this test reported for `CCCCCC=CCC=CCCCCCCCC(=O)OCC` ?
Found: active

Lookup: Could you check what this test reported for `CN(C)CCOC1=Cc2ccccc2Sc2ccc(Cl)cc21` ?
Found: inactive

Lookup: Could you check what this test reported for `Cc1cc(S(=O)(=O)O)ccc1N=Nc1c(O)ccc2ccccc12` ?
Found: active

Lookup: Could you check what this test reported for C=CC(C)(O)CCCC(C)CCCC(C)CCCC(C)C (centres undefined) ?
Found: inactive

Lookup: Could you check what this test reported for `O=C(O)c1cccc(O)c1` ?
Found: active

Lookup: Could you check what this test reported for CC(CCO)CCc1ccccc1 (centres undefined) ?
Found: active

Lookup: Could you check what this test reported for `COC(OC)(C(=O)c1ccccc1)c1ccccc1` ?
Found: active

Lookup: Could you check what this test reported for `CCC(=O)Oc1ccc(/C(CC)=C(\CC)c2ccc(OC(=O)CC)cc2)cc1` ?
Found: inactive

Lookup: Could you check what this test reported for `Cc1ccnc2ccccc12` ?
Found: inactive

Lookup: Could you check what this test reported for `CO[Si](C)(OC)OC` ?
Found: inactive

Lookup: Could you check what this test reported for `CO[C@H]1O[C@H](CO)[C@@H](O)[C@H](O)[C@H]1O` ?
Found: inactive
